System: A549/ATCC NSCLC
TEST DESCRIPTION: NCI-60 one-dose screen, 48 h (100 = growth as untreated, 0 = no growth, -100 = all killed)
RECORDED CONDITIONS: 10 µM unless noted
This is part of a sample that, as a whole, favours compounds with a hit. Of some 83,000 tested, about 20% had one in any assay.

{"columns": ["COMPOUND", "growth / %"],
 "data": [
  ["COc1ccc(C2=NN(C(C)=O)C(c3ccc(OCc4ccc(Cl)cc4)c(OC)c3)C2)cc1OC (stereo not given)", 29],
  ["O=C1CC(Sc2n[nH]c(-c3ccncc3)n2)C(=O)N1c1ccc(Br)cc1 (stereo not given)", 106],
  ["N/N=C(\\N)c1c(N)nc(=S)[nH]c1-c1ccc(Cl)cc1Cl", 104],
  ["Cc1cccc(NC(=O)CN2CCN(c3ncnc4c3cnn4-c3ccccc3)CC2)c1", 97],
  ["O=C(COc1ccc(NC(=O)Nc2ccc(Cl)cc2)cc1)N/N=C/c1ccccc1", -78.3],
  ["Cn1cc(-c2cc3nc(-c4c[nH]c5ccc(Br)cc45)cc(N)n3n2)c2ccccc21", -71.7],
  ["O=C(Cn1c(/C=C/c2ccccc2)nc2ccccc2c1=O)Nc1ccc(Cl)cc1", 33.8],
  ["Cc1ccc2c(c1)nc(-c1ccccc1)n2CC(=O)N=Nc1c(O)[nH]c2ccc(Br)cc12", -45.4],
  ["COc1ccc(C(=O)/C=C/c2ccc(OCc3ccccc3)c(OC)c2)cc1OC", 14.4],
  ["COc1ccc(/C=C/c2nc3ccccc3c(=O)n2CC(=O)Nc2ccc(OC)cc2)cc1", 46.9],
  ["O=C(NNc1nc2cc(C(F)(F)F)ccc2n2cccc12)c1cnccn1", -60.5],
  ["CCCCCCCCc1ccc(C(=O)Nc2ccc(C)cc2C(=O)O)cc1C", 85.8],
  ["COc1cc(OC)cc(C(=O)Nc2cccc(-c3cn(-c4ccc(S(N)(=O)=O)cc4)nn3)c2)c1", 90.9],
  ["COc1ccc2c(c1)c(/C=N/Nc1ccc3ccccc3n1)cn2C", 14.9],
  ["O=C(N1c2ccccc2Sc2ccccc21)n1ccc2cccnc21", 75.8],
  ["CC(=O)/C=C/c1cccc2c1C(=O)NC(C)(c1cc3cc(Br)ccc3oc1=O)N2 (stereo not given)", 55.1],
  ["Cc1cc(N=C2NC(=O)CS2)n[nH]1", 109],
  ["O=C(O)c1ccc(-c2ccc(/C=N/NC(=O)c3[nH]c4ccc(Br)cc4c3-c3ccccc3)s2)cc1", 23.1],
  ["C=Cn1cc(C(=O)O)c(=O)c2cc(F)c(N3CCN(c4nccc(-c5nccs5)n4)CC3)cc21", -34.3],
  ["Cn1cc(-c2cc(N)n3nc(-c4cn(C)c5ncc(Br)cc45)cc3n2)c2cc(Br)cnc21", -22.3]
]}

====

Test system: MDA-MB-468 breast
TEST DESCRIPTION: NCI-60 one-dose screen, 48 h (100 = growth as untreated, 0 = no growth, -100 = all killed)
RECORDED CONDITIONS: 10 µM unless noted
The panel holds about 83,000 compounds, 20% with a hit somewhere; the sample as a whole holds those more often.
OBSERVABLE: growth (%)

{"columns": ["MOLECULE", "OBSERVABLE", "UOM", "MEASUREMENT"],
 "data": [
  ["CCOC(=O)C1=C(N)N(c2ccccc2)C2=C(C(=O)CC(C)(C)C2)C1c1cccc(Cl)c1Cl (centres undefined)", "growth", "%", 47.8],
  ["C#CCOc1cc(N(CC)CC)ccc1C(C(=O)NC(C)(C)C)N(C(=O)C1CCc2cc(F)ccc2O1)c1ccc(F)c(Cl)c1 (centres undefined)", "growth", "%", 37.6],
  ["O=C(NN1C(=O)/C(=C/C=C/c2ccc([N+](=O)[O-])o2)SC1=S)c1cccc(O)c1", "growth", "%", -73.4],
  ["Cn1cc(-c2cc(N)n3nc(-c4cn(C)c5ccccc45)cc3n2)c2cc(Cl)ccc21", "growth", "%", -31.9],
  ["Cn1cc(-c2cc(N)n3nc(-c4c[nH]c5ccccc45)cc3n2)c2cccnc21", "growth", "%", -54.3],
  ["CCCCCCCCc1ccc(C(=O)Nc2cccc(P(=O)(O)O)c2)cc1", "growth", "%", 88.7],
  ["COc1cc(-c2nc3cc(Cl)c(Cl)cc3[nH]2)ccc1OCc1nnc(-c2cccs2)o1", "growth", "%", 46.4],
  ["CCCCSc1nc(Nc2ccc(S(N)(=O)=O)cc2)c(C#N)c(-c2cc(OC)c(OC)c(OC)c2)n1", "growth", "%", 61.2],
  ["CC1=C(C(=O)OCc2ccccc2)C(c2ccc(-n3cncn3)cc2)n2c(nc3ccccc32)N1 (centres undefined)", "growth", "%", -18.8]
]}

====

Tested on: HT29 colon
TEST DESCRIPTION: NCI-60 one-dose screen, 48 h (100 = growth as untreated, 0 = no growth, -100 = all killed)
RECORDED CONDITIONS: 10 µM unless noted
The panel holds about 83,000 compounds, 20% with a hit somewhere; the sample as a whole holds those more often.
Entries annotated with measured growth
OBSERVABLE: growth (%)

{"columns": ["STRUCTURE NOTATION", "TARGET OR SYSTEM", "UOM", "MEASUREMENT"],
 "data": [
  ["Cc1cccc(Nc2nc3ccccc3nc2/C=C/c2ccc(F)cc2)c1", "HT29 colon", "%", 86.4],
  ["N#Cc1c(-c2cccc(Cl)c2Cl)cc(-c2c[nH]c3ccccc23)[nH]c1=O", "HT29 colon", "%", 110],
  ["C#CCOc1ccc(/C=N/Nc2nc(-c3cc4cc(Br)ccc4oc3=O)cs2)cc1OC", "HT29 colon", "%", 36.1],
  ["N#Cc1c(-c2ccccc2Cl)cc(-c2ccc3ccccc3c2)[nH]c1=O", "HT29 colon", "%", 108],
  ["CC(=O)Nc1cccc(-c2nc3cc(-c4ccc(O)cc4)ccc3n2C)c1", "HT29 colon", "%", 62.6]
]}

====

Test system: SF-539 CNS
TEST DESCRIPTION: NCI-60 one-dose screen, 48 h
RECORDED CONDITIONS: 10 µM unless noted
About 83,000 compounds went through this panel and 20% of them were active in at least one assay; those are over-represented in the sample as a whole. Calls of active or inactive are those of the source. How the source made its calls: active means growth percent below 10; inactive means the rest.
Labels: active, inactive

{"columns": ["MOLECULE", "QUALITATIVE LABEL"],
 "data": [
  ["O=C(CCN1C(=O)/C(=C/c2ccc(F)cc2)SC1=S)N1CCOCC1", "inactive"],
  ["CC(=O)OC[C@@]1(C)C2CC[C@]3(C)C(CC=C4C5CC(C)(C)CC[C@]5(C(=O)Nc5ccc(F)cc5)CC[C@]43C)[C@@]2(C)C[C@@H](OC(C)=O)[C@@H]1OC(C)=O (stereo partly drawn)", "inactive"],
  ["COc1ccc(C(=O)/C=C/c2ccc(Oc3nc(Nc4ccc(F)cc4)nc(N(C)C)n3)c(OC)c2)cc1", "inactive"],
  ["Cc1cc2nc3c([nH]c2cc1C)c1ccc(=O)cc1n3CCN(C)C", "inactive"],
  ["COc1ccc(C2(SCCNCc3cc(N(C)C)ccn3)c3ccccc3C=Cc3ccccc32)cc1", "active"],
  ["O=C(NNc1nc2cc(F)ccc2n2c(C(=O)N3CCN(C4CC4)CC3)ccc12)c1ncccn1", "inactive"],
  ["COc1ccc(-c2nc3cc(C)ccc3n2CC(=O)N=Nc2c(O)[nH]c3ccc(Cl)cc23)cc1", "active"],
  ["COc1ccc(/C=C/c2n(Cc3ccc4ccccc4c3)c3ccccc3[n+]2Cc2ccc3ccccc3c2)cc1", "active"]
]}

====

Test system: SK-MEL-2 melanoma
TEST DESCRIPTION: NCI-60 one-dose screen, 48 h (100 = growth as untreated, 0 = no growth, -100 = all killed)
RECORDED CONDITIONS: 10 µM unless noted
About 83,000 compounds went through this panel and 20% of them were active in at least one assay; those are over-represented in the sample as a whole.
Entries annotated with measured growth

{"columns": ["COMPOUND", "growth (%)"],
 "data": [
  ["Cc1cccc(NC(=O)[C@]23CCC(C)(C)CC2C2=CCC4[C@@]5(C)C[C@@H](O)[C@H](O)[C@@](C)(CO)C5CC[C@@]4(C)[C@]2(C)CC3)c1 (some centres undefined)", 32.2],
  ["CN(C)c1nc(NCCNS(=O)(=O)c2ccc(C3=Nc4c(N)nc(N)nc4NC(c4ccc(F)cc4)C3)cc2)nc(Nc2ccc(F)cc2)n1 (centres undefined)", 58.7],
  ["COc1ccc(-c2nc3cc(C)ccc3n2CC(=O)N=Nc2c(O)[nH]c3ccccc23)cc1", 58],
  ["CCOC(=O)/C=C/c1cccc2c1C(=O)NC(C)(c1cc3cc(Br)ccc3oc1=O)N2 (centres undefined)", 5.72]
]}
